tested.system: wild-type β2AR (Homo sapiens)
Sequence (P07550 whole entry): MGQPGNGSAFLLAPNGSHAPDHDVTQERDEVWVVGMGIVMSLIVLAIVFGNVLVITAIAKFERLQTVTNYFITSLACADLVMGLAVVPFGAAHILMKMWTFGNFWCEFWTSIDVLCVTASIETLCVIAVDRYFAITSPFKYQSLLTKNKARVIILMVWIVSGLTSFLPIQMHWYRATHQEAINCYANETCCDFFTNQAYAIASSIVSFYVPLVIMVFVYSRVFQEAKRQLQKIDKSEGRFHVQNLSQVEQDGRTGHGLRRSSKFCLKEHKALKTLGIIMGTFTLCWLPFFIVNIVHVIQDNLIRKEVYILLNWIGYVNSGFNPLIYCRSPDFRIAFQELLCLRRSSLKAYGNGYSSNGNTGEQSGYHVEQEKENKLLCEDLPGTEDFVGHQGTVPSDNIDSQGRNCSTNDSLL
readout.kind: Kd (nM)
Give bare numbers, in nM.

Req: State recorded Kd with wild-type β2AR (Homo sapiens), entry CCCc1ccccc1OCC(O)CNC(C)C (stereo not shown) [[^3H]DHA, [^3H]-dihydroalprenolol] , no comment.
Resp: 0.161

Where these numbers come from: patent US8252899B2
